All values here come from patent US6572860B1.

- Test system: HSV-1
- test-name: HSV-1 challenge of mice vaccinated with B1 peptides: survival (FIG. 7)
- Type: in vivo
- setup-conditions: C57BI6 mice, after day 8
- Description: In order to further establish the effectiveness of conjugated peptides according to this invention as effective vaccines for treatment of herpes simplex virus, the HSV epitope B1, which is a T cell epitope (aa 498-505, SSIEFARL) of glycoprotein B found in both HSV-1 or HSV-2 (see Hanke, et al, J. Virol. 65:1177-86; and Bonneau, et al, Virology 195:62-70) was selected and evaluated with either peptide J or peptide G or peptide L as described above. […]
Collected survival (mice surviving of 9) values appear next to each entry.

- substance: "NGQ EEK AGV VST GLI GGG SSI EFA RL (SEQ ID NO:17) (NGQEEKAGVVSTGLIGGGSSIEFARL) [GB1, conjugated polypeptide of Peptide G, GGG spacer and peptide B1]"
  survival (mice surviving of 9): "5 of 9"
- substance: "DLL KNG ERI EKV EGG GSS IEF ARL (SEQ ID NO:16) (DLLKNGERIEKVEGGGSSGSSIEFARL) [JB1, conjugated polypeptide of Peptide J, GGG spacer and peptide B1 of glycoprotein B]"
  survival (mice surviving of 9): "4 of 9"
- substance: "SSIEFARL (SEQ ID NO:4) [B1, non-conjugated antigenic peptide, amino acid residues 498 to 505 from glycoprotein B of HSV-1, reference compound]"
  survival (mice surviving of 9): "0 of 9"
- substance: "LHG PEI LDV PST GGG SSI EFA RL (SEQ ID NO:18) (LHGPEILDVPSTGGGSSIEFARL) [LB1, conjugated polypeptide of Peptide L, GGG spacer and peptide B1]"
  survival (mice surviving of 9): "1 of 9"
